Cited source for all entries: patent US7759356B2

Consider compounds characterized by their pKi with A1 (Homo sapiens, UniProt P30542).
Sequence (P30542 whole entry): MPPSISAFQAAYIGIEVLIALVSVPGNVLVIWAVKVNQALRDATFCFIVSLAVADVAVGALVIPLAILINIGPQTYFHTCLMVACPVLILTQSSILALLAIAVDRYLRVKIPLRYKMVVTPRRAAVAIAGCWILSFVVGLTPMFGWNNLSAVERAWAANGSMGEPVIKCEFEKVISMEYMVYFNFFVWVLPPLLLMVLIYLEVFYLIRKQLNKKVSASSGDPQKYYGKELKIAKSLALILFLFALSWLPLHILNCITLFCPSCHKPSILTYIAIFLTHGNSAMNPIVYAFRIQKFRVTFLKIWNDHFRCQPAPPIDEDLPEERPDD
Value format note: pKi is -log10 of concentration (mol/L); just state the number.

{"columns": ["MOLECULAR STRING", "QUANTITATIVE READOUT"],
 "data": [
  ["Nc1nc(-c2ccco2)c2c(n1)-c1cccc(N)c1C2=O", 9.04]
]}

Switching to the query record.
Qu. Please report pKi with A1 (Homo sapiens, UniProt P30542) for item C[C@@H](CN(C)C)OC(=O)c1c(N)nc(-c2ccco2)c2c1-c1ccccc1C2=O .
Ans. 7.28

###

target: human A2a adenosine receptor (Homo sapiens, UniProt P29274); assay: Ligand binding assay for adenosine A2a receptor ([3H]CGS21680, HEK293 membranes); settings: radioligand [3H]CGS21680, HEK293 plasma membrane
Sequence (P29274 whole entry): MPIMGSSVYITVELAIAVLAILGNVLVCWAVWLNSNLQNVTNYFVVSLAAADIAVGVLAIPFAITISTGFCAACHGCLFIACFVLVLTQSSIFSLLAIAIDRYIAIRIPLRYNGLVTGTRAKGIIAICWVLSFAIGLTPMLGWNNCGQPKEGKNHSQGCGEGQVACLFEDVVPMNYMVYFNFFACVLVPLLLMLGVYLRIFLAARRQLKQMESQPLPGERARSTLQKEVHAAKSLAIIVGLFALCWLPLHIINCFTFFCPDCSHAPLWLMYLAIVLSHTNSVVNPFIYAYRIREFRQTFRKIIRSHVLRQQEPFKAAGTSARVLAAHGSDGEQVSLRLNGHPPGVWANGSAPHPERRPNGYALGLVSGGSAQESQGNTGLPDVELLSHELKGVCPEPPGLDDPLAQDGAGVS
# pKi values compiled below
Value format note: pKi is -log10 of concentration (mol/L); just state the number.

{"columns": ["COMPOUND", "QUANTITATIVE READOUT"],
 "data": [
  ["CS(=O)(=O)c1nc(N)nc2c1C(=O)c1ccccc1-2", 5.57],
  ["Nc1nc(-c2ccco2)c2c(n1)-c1cccc(N)c1C2=O", 10.30],
  ["CN(C)CCOC(=O)c1c(N)nc(-c2ccsc2)c2c1-c1ccccc1C2=O", 7.19]
]}

Qu. Report pKi, nothing else, for this compound: COc1ccc(-c2nc(N)nc3c2C(=O)c2ccccc2-3)cn1
Ans. 7.50

Qu. Report pKi, nothing else, for this compound: Nc1nc(-c2ccccc2)c2c(n1)-c1cccc(CN3CCN(CCO)CC3)c1C2=O
Ans. 7.51

Qu. Report pKi, nothing else, for this compound: CC(O)C(O)c1cccc2c1-c1nc(N)nc(-c3ccccc3)c1C2=O (centres unmarked)
Ans. 9.76

Qu. Report pKi, nothing else, for this compound: CN1CCN(Cc2cccc3c2C(=O)c2c(-c4ccccc4)nc(N)nc2-3)CC1
Ans. 7.10

Qu. Report pKi, nothing else, for this compound: C[C@@H](CN(C)C)OC(=O)c1c(N)nc(-c2ccco2)c2c1-c1ccccc1C2=O
Ans. 7.31
